The entries below are paired with their reported inhibition at 1 µM.
System name: BRAF V600E (Homo sapiens (Human), UniProt P15056, V600E)
Sequence (P15056 whole entry V600E): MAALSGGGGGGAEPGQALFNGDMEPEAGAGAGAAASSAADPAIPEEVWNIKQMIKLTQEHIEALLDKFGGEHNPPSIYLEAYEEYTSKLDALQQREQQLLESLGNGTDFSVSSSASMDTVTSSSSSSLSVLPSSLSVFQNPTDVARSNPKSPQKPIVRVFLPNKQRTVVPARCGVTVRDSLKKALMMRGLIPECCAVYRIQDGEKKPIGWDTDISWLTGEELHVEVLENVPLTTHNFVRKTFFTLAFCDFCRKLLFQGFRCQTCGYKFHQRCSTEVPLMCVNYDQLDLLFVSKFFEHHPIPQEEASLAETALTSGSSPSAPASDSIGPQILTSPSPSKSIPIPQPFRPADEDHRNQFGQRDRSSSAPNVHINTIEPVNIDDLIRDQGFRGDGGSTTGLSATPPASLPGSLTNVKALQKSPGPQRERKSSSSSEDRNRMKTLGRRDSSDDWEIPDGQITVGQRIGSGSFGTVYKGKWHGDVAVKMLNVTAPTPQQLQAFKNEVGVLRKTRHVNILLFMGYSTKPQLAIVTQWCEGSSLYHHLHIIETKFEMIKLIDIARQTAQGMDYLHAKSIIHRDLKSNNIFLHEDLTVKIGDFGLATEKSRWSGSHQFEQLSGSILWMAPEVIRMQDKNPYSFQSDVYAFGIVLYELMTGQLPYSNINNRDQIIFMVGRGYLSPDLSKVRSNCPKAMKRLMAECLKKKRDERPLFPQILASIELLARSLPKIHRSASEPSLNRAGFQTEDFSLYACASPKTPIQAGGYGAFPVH
Assay overview: Z′-LYTE kinase inhibition assay (Invitrogen), BRAF V600E
Format: biochemical
Experimental setup: 1 μM compound, Z′-LYTE method; read-out: % inhibition at 1 μM against BRAF V600E
Reported metric: inhibition at 1 µM

compound="O=C(Nc1cccc(C(=O)c2ccc3ncc(-c4cccnc4)nc3c2)c1)Nc1ccc(Cl)c(C(F)(F)F)c1 [Compound C022]" system_name="BRAF V600E (Homo sapiens (Human), UniProt P15056, V600E)" measured_result="> 89%"
compound="O=C(Nc1cccc(C(=O)c2ccc3ncc(-c4cn[nH]c4)nc3c2)c1)Nc1ccc(Cl)c(C(F)(F)F)c1 [Compound C029]" system_name="BRAF V600E (Homo sapiens (Human), UniProt P15056, V600E)" measured_result="> 89%"
compound="O=C(Nc1cccc(F)c1)Nc1ccc(F)c(C(=O)c2ccc3nccnc3c2)c1F [Compound C011]" system_name="BRAF V600E (Homo sapiens (Human), UniProt P15056, V600E)" measured_result="70 to 89%"
